Please respond with reported IC50 for every item in the list.
# ASSAY TARGET: PARP7 (Homo sapiens (Human), UniProt Q7Z3E1)
# Sequence (Q7Z3E1 whole entry): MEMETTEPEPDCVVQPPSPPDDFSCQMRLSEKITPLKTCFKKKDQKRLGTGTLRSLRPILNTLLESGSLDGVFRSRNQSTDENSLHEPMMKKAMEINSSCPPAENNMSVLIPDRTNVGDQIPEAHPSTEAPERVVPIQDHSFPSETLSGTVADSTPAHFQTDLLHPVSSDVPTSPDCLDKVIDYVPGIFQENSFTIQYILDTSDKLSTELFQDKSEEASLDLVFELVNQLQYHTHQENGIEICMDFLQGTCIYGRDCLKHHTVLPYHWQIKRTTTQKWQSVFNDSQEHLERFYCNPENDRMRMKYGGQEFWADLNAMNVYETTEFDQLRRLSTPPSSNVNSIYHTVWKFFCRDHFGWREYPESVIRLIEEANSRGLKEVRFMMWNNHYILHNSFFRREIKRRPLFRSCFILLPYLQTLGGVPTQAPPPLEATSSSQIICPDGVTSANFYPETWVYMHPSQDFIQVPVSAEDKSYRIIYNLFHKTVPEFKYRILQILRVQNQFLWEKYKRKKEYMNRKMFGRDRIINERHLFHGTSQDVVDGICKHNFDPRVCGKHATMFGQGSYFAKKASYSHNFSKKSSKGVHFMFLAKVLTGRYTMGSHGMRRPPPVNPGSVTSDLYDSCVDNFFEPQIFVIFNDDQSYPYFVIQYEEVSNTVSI
# PROTOCOL DESCRIPTION: Enzymatic assay for inhibition of PARP7: TR-FRET displacement of biotinylated Probe A from the TIPARP active site
# CONDITION NOTES: Table A-1

Which IC50 is reported for this compound? O=C(c1cccc(OC[C@@H]2CCCN2c2cn[nH]c(=O)c2C(F)(F)F)c1)N1CCN(c2ncc(C(F)(F)F)cn2)CC1
< 100 nM

Would you kindly repeat that for O=C(COC[C@@H]1CCCN1c1cn[nH]c(=O)c1C(F)(F)F)NC1CCC(Oc2ccccn2)CC1 (stereo partly drawn) ?
100 to 1000 nM

Would you kindly repeat that for C[C@@H](COCCC(=O)N1CCN(c2ncc(C(F)(F)F)s2)CC1)Nc1cn[nH]c(=O)c1C(F)(F)F ?
< 100 nM

Would you kindly repeat that for N#Cc1ccc(N2CCN(C(=O)CCOCCOc3cn[nH]c(=O)c3Br)CC2)nc1 ?
< 100 nM

Would you kindly repeat that for O=c1[nH]ncc(N2Cc3cc(OCCN4CCOCC4)cnc3C2)c1C(F)(F)F ?
100 to 1000 nM

Would you kindly repeat that for O=c1[nH]ncc(N2Cc3ccc(OC4CCNCC4)cc3C2)c1Cl ?
100 to 1000 nM

* * *

# ASSAY TARGET: PARP7 (Homo sapiens (Human), UniProt Q7Z3E1)
# PROTOCOL DESCRIPTION: Enzymatic assay for inhibition of PARP7: TR-FRET displacement of biotinylated Probe A from the TIPARP active site
# CONDITION NOTES: Table A-1
pIC50: −log10 of the molar value.
Please respond with reported pIC50 for every item in the list.

Which pIC50 is reported for this compound? N#Cc1ccc(N2CCN(C(=O)C[C@H](N)COC[C@@H]3CCCN3c3cn[nH]c(=O)c3C(F)(F)F)CC2)nc1 [Example 145B, formic acid]
> 7.00

Would you kindly repeat that for N#Cc1ccc(N2CCN(C(=O)CCO[C@@H]3CCC[C@H]3Oc3cn[nH]c(=O)c3C(F)(F)F)CC2)nc1 (single isomer, unassigned) [Example 572 Isomer B] ?
6.00 to 7.00

Would you kindly repeat that for O=c1[nH]ncc(N2Cc3cccc(N4CCCC4)c3C2)c1C(F)(F)F ?
> 7.00

Would you kindly repeat that for COC[C@H](COCCC(=O)N1CCN(c2ncc(C(F)(F)F)cn2)CC1)Sc1cn[nH]c(=O)c1C(F)(F)F (single isomer, unassigned) ?
6.00 to 7.00

Would you kindly repeat that for N#Cc1ccc(N2CCN(C(=O)c3cncc(OC[C@@H]4c5ccccc5CN4c4cn[nH]c(=O)c4C(F)(F)F)n3)CC2)nc1 (single isomer, unassigned) [Example 72 Isomer A] ?
> 7.00

Would you kindly repeat that for O=C(CCOC[C@@H]1CCCN1c1cn[nH]c(=O)c1C(F)(F)F)N[C@H]1CC[C@@H](Nc2ccccn2)CC1 (single isomer, unassigned; isomer b) [Example 81 Isomer B] ?
≤ 6.00

Would you kindly repeat that for C[C@@H](COc1cn[nH]c(=O)c1C(F)(F)F)OCCC(=O)N1CCN(c2ncc(Cl)cn2)CC1 (single isomer, unassigned) [Example 543 Isomer B] ?
> 7.00

Would you kindly repeat that for N#Cc1ccc(N2CCN(C(=O)c3cccc(OCC4CCCN4c4cn[nH]c(=O)c4C(F)(F)F)c3)CC2)nc1 (stereo not shown) ?
> 7.00

Would you kindly repeat that for C[C@H](COc1cn[nH]c(=O)c1C(F)(F)F)OCCC(=O)N1CCN(c2ccc(C#N)cn2)CC1 [Example 530D] ?
> 7.00

Would you kindly repeat that for N#Cc1ccc(N2CCN(C(=O)C/C=C\OC[C@@H]3CCCN3c3cn[nH]c(=O)c3C(F)(F)F)CC2)nc1 (single isomer, unassigned) [Example 96 Isomer A] ?
> 7.00
